Each recorded value in this set is attributed to patent US9102678B2.

Assayed system: recombinant murine Aurora A enzyme (Mus musculus, UniProt P97477)
Construct: hexahistidine (His6) (N); made in house; host or cells: insect cells, baculovirus (Bac-to-Bac, Invitrogen)
Sequence (P97477 whole entry): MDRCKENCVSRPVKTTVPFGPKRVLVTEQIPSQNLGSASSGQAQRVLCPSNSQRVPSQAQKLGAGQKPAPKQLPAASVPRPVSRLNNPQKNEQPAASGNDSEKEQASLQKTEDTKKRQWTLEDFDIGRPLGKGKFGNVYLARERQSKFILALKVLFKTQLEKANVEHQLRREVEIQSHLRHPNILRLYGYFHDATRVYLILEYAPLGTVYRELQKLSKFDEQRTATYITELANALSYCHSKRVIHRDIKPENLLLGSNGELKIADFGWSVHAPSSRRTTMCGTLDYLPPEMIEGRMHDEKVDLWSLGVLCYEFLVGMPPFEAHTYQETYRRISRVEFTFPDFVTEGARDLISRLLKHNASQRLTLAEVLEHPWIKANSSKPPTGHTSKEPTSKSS
Test: Aurora A DELFIA Kinase Assay
Assay type: biochemical
Condition context: mouse Aurora A, 250 μM ATP; threshold less than or equal to 100 nM; read-out: IC50
Measurement name: IC50

[[record]]
molecule = "NC1CCN(C(=O)c2ccc(Nc3ncc4c(n3)-c3ccc(Cl)cc3C(c3ccccc3F)=NC4)cc2)C1 (stereo not drawn)"
assayed_system = "recombinant murine Aurora A enzyme (Mus musculus, UniProt P97477)"
reported_result = "≤ 100 nM"


Query string: Sample NC1(C(=O)O)CCN(C(=O)c2ccc(Nc3ncc4c(n3)-c3ccc(Cl)cc3C(c3c(F)cccc3F)=NC4)cc2)CC1 — what was its IC50?
Result string: ≤ 100 nM

Query string: Sample NC1CCN(C(=O)c2ccc(Nc3ncc4c(n3)-c3ccc(Cl)cc3C(c3ccccc3C(F)(F)F)=NC4)cc2)C1 (stereo not drawn) — what was its IC50?
Result string: ≤ 100 nM

###

Assayed system: recombinant murine Aurora A enzyme (Mus musculus, UniProt P97477)
Construct: hexahistidine (His6) (N); made in house; host or cells: insect cells, baculovirus (Bac-to-Bac, Invitrogen)
Test: Aurora A DELFIA Kinase Assay
Format: biochemical
Condition context: mouse Aurora A, 250 μM ATP; threshold less than or equal to 100 nM; read-out: IC50
pIC50: −log10 of the molar value.
Measurement name: pIC50

[[record]]
molecule = "O=C(NCCc1c[nH]cn1)c1ccc(Nc2ncc3c(n2)-c2ccc(Cl)cc2C(c2ccccc2F)=NC3)cc1"
reported_result = "≥ 7.00"

[[record]]
molecule = "O=C(NCCN1CCOCC1)c1ccc(Nc2ncc3c(n2)-c2ccc(Cl)cc2C(c2ccccc2F)=NC3)cc1"
reported_result = "≥ 7.00"

[[record]]
molecule = "CNC1CCCN(C(=O)c2ccc(Nc3ncc4c(n3)-c3ccc(Cl)cc3C(c3c(F)cccc3F)=NC4)cc2)C1 (centres unmarked)"
reported_result = "≥ 7.00"

[[record]]
molecule = "CN(C)CCN(C)C(=O)c1ccc(Nc2ncc3c(n2)-c2ccc(Cl)cc2C(c2c(F)cccc2F)=NC3)cc1"
reported_result = "≥ 7.00"

[[record]]
molecule = "CN(C)C1CCN(C(=O)c2ccc(Nc3ncc4c(n3)-c3ccc(Cl)cc3C(c3c(F)cccc3F)=NC4)cc2)CC1"
reported_result = "≥ 7.00"


Query string: Sample CC(C)(N)C(=O)Nc1ccc(Nc2ncc3c(n2)-c2ccc(Cl)cc2C(c2c(F)cccc2F)=NC3)cc1 — what was its pIC50?
Result string: ≥ 7.00

Query string: Sample CN(C)CCCc1cccc(Nc2ncc3c(n2)-c2ccc(Cl)cc2C(c2c(F)cccc2F)=NC3)c1 — what was its pIC50?
Result string: ≥ 7.00

Query string: Sample CC1CN(C(=O)c2ccc(Nc3ncc4c(n3)-c3ccc(Cl)cc3C(c3ccccc3F)=NC4)cc2)CCN1 (centres unmarked) — what was its pIC50?
Result string: ≥ 7.00

Query string: Sample Cc1cc(NS(=O)(=O)c2ccc(Nc3ncc4c(n3)-c3ccc(Cl)cc3C(c3ccccc3Cl)=NC4)cc2)no1 — what was its pIC50?
Result string: ≥ 7.00

Query string: Sample OC1CN=C(c2ccc(Nc3ncc4c(n3)-c3ccc(Cl)cc3C(c3c(F)cccc3F)=NC4)cc2)NC1 (centres unmarked) — what was its pIC50?
Result string: ≥ 7.00

Query string: Sample CN(C)C1CCN(C(=N)c2ccc(Nc3ncc4c(n3)-c3ccc(Cl)cc3C(c3c(F)cccc3F)=NC4)cc2)C1 (centres unmarked) — what was its pIC50?
Result string: ≥ 7.00

Query string: Sample COc1cccc(F)c1C1=NCc2cnc(Nc3ccc(C(=O)N(C)CCCN)cc3)nc2-c2ccc(Cl)cc21 — what was its pIC50?
Result string: ≥ 7.00

Query string: Sample Cc1ccc2c(c1)C(c1ccccc1F)=NCc1cnc(Nc3ccc(C(=O)NCCCN4CCN(C)CC4)cc3)nc1-2 — what was its pIC50?
Result string: ≥ 7.00

Query string: Sample CN1CCN(C(=O)Nc2ccc(Nc3ncc4c(n3)-c3ccc(Cl)cc3C(c3c(F)cccc3F)=NC4)cc2)CC1 — what was its pIC50?
Result string: ≥ 7.00

###

Assayed system: recombinant murine Aurora A enzyme (Mus musculus, UniProt P97477)
Construct: hexahistidine (His6) (N); made in house; host or cells: insect cells, baculovirus (Bac-to-Bac, Invitrogen)
Test: Aurora A DELFIA Kinase Assay
Type: biochemical
Condition context: mouse Aurora A, 250 μM ATP; threshold less than or equal to 100 nM; read-out: IC50
Measurement name: IC50

Recorded results for 3 compounds are shown here.
[[record]]
compound = "CN(CCCN)C(=O)c1ccc(Nc2ncc3c(n2)-c2ccc(Cl)cc2C(c2c(F)cccc2F)=NC3)cc1"
assayed_system = "recombinant murine Aurora A enzyme (Mus musculus, UniProt P97477)"
reported_result = "≤ 100 nM"

[[record]]
compound = "CN(C)C1CCN(C(=O)c2ccc(Nc3ncc4c(n3)-c3ccc(Cl)cc3C(c3ccccc3F)=NC4)cc2)CC1"
assayed_system = "recombinant murine Aurora A enzyme (Mus musculus, UniProt P97477)"
reported_result = "≤ 100 nM"

[[record]]
compound = "CNC(=O)C1(N)CCN(C(=O)c2ccc(Nc3ncc4c(n3)-c3ccc(Cl)cc3C(c3c(F)cccc3F)=NC4)cc2)CC1"
assayed_system = "recombinant murine Aurora A enzyme (Mus musculus, UniProt P97477)"
reported_result = "≤ 100 nM"


Query string: Sample NC1CCN(C(=O)c2ccc(Nc3ncc4c(n3)-c3ccc(Cl)cc3C(c3ncccc3F)=NC4)cc2)C1 (stereo not shown) — what was its IC50?
Result string: ≤ 100 nM

Query string: Sample COc1cccc(F)c1C1=NCc2cnc(Nc3ccc(C(=O)N(C)CCN(C)C)cc3)nc2-c2ccc(Cl)cc21 — what was its IC50?
Result string: ≤ 100 nM

Query string: Sample CN1CCN(C(=O)c2cccc(Nc3ncc4c(n3)-c3ccc(Cl)cc3C(c3ccccc3F)=NC4)c2)CC1 — what was its IC50?
Result string: ≤ 100 nM

Query string: Sample C[C@@H]1CN(C(=O)c2ccc(Nc3ncc4c(n3)-c3ccc(Cl)cc3C(c3c(F)cccc3F)=NC4)cc2)CCN1 — what was its IC50?
Result string: ≤ 100 nM

###

Item-by-item account of pIC50
Assayed system: recombinant murine Aurora A enzyme (Mus musculus, UniProt P97477)
Construct: hexahistidine (His6) (N); made in house; host or cells: insect cells, baculovirus (Bac-to-Bac, Invitrogen)
Test: Aurora A DELFIA Kinase Assay
Assay type: biochemical
Condition context: mouse Aurora A, 250 μM ATP; threshold less than or equal to 100 nM; read-out: IC50
pIC50: −log10 of the molar value.

Query string: Reported pIC50 for recombinant murine Aurora A enzyme (Mus musculus, UniProt P97477), given CNC1CN(C(=O)c2ccc(Nc3ncc4c(n3)-c3ccc(Cl)cc3C(c3c(F)cccc3F)=NC4)cc2)C1 ?
Result string: ≥ 7.00

Query string: Reported pIC50 for recombinant murine Aurora A enzyme (Mus musculus, UniProt P97477), given CNCCNC(=O)c1ccc(Nc2ncc3c(n2)-c2ccc(Cl)cc2C(c2ccccc2F)=NC3)cc1 ?
Result string: ≥ 7.00

Query string: Reported pIC50 for recombinant murine Aurora A enzyme (Mus musculus, UniProt P97477), given CNC1CN(C(=O)c2ccc(Nc3ncc4c(n3)-c3ccc(Cl)cc3C(c3ccccc3C(F)(F)F)=NC4)cc2)C1 ?
Result string: ≥ 7.00

Query string: Reported pIC50 for recombinant murine Aurora A enzyme (Mus musculus, UniProt P97477), given Cc1ccc2c(c1)C(c1ccccc1F)=NCc1cnc(Nc3ccc(C(=O)N4CCN(C)CC4)cc3)nc1-2 ?
Result string: ≥ 7.00

###

Assayed system: recombinant murine Aurora A enzyme (Mus musculus)
Construct: hexahistidine (His6) (N); made in house; host or cells: insect cells, baculovirus (Bac-to-Bac, Invitrogen)
Test: Aurora A DELFIA Kinase Assay
Type: biochemical
Condition context: mouse Aurora A, 250 μM ATP; threshold less than or equal to 100 nM; read-out: IC50
pIC50: −log10 of the molar value.
Measurement name: pIC50

Recorded results for 3 compounds are shown here.
[[record]]
compound = "CN(C)C1CCN(C(=O)c2cc(Nc3ncc4c(n3)-c3ccc(Cl)cc3C(c3c(F)cccc3F)=NC4)ccc2Cl)CC1"
reported_result = "≥ 7.00"

[[record]]
compound = "CN(C)CCCN(C)C(=O)c1ccc(Nc2ncc3c(n2)-c2ccc(Cl)cc2C(c2c(F)cccc2F)=NC3)cc1"
reported_result = "≥ 7.00"

[[record]]
compound = "CNCCCNC(=O)c1ccc(Nc2ncc3c(n2)-c2ccc(Cl)cc2C(c2ccccc2F)=NC3)cc1"
reported_result = "≥ 7.00"


Query string: Sample CC(=O)c1ccc(Nc2ncc3c(n2)-c2ccc(Cl)cc2C(c2c(F)cccc2F)=NC3)cc1 — what was its pIC50?
Result string: ≥ 7.00

Query string: Sample COc1cccc(F)c1C1=NCc2cnc(Nc3ccc(C(=O)N4CCC(N)C4)cc3)nc2-c2ccc(Cl)cc21 (stereo not shown) — what was its pIC50?
Result string: ≥ 7.00

Query string: Sample NC(=O)C1CN(C(=O)c2ccc(Nc3ncc4c(n3)-c3ccc(Cl)cc3C(c3c(F)cccc3F)=NC4)cc2)CCN1 (stereo not shown) — what was its pIC50?
Result string: ≥ 7.00

Query string: Sample O=C(O)c1ccc(Nc2ncc3c(n2)-c2ccc(C(=O)O)cc2C(c2ccccc2F)=NC3)cc1 — what was its pIC50?
Result string: ≥ 7.00
